# assayed_system: human NGF (Homo sapiens, UniProt P01138)
# Sequence (P01138 122-241): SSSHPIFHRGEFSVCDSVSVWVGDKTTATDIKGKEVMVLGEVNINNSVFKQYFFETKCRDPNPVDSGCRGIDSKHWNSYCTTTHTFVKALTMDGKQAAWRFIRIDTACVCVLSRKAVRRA
# procedure_details: BIAcore screening assay of Fab library clones (koff)
# Assay type: binding
# assay_setup: Table 6: single CDR H3 or L3 mutation in 8L2-6D5 template
observation_type: koff
Note: a bare number is incomplete; add the unit.

Consider the worked cases shown below.
Q. Param item = Y96R: 8L2-6D5 template with CDR L3 mutation Y96R (antibody, V domains shown) VH: QVQLQESGPGLVKPSETLSLTCTVSGFSLIGYDINWIRQPPGKGLEWIGMIWGDGTTDYNSALKSRVTISKDTSKNQFSLKLSSVTAADTAVYYCARGGYYYGTSYYFDYWGQGTLVTVS VL: DIQMTQSPSSLSASVGDRVTITCRASQDISNHLNWYQQKPGKAPKLLIYYISRFHSGVPSRFSGSGSGTDFTFTISSLQPEDIATYYCQQSKTLPRTFGQGTKLEIKRT ; retrieve measured koff.
A. 0.0017 s⁻¹

Q. Param item = S105A: 8L2-6D5 template with CDR H3 mutation S105A (SEQ ID NO:47) (antibody, V domains shown) VH: QVQLQESGPGLVKPSETLSLTCTVSGFSLIGYDINWIRQPPGKGLEWIGMIWGDGTTDYNSALKSRVTISKDTSKNQFSLKLSSVTAADTAVYYCARGGYYYGTAYYFDYWGQGTLVTVS VL: DIQMTQSPSSLSASVGDRVTITCRASQDISNHLNWYQQKPGKAPKLLIYYISRFHSGVPSRFSGSGSGTDFTFTISSLQPEDIATYYCQQSKTLPYTFGQGTKLEIKRT ; retrieve measured koff.
A. 0.00051 s⁻¹

Could you now consider this next molecule?
Q. Param item = S91E: 8L2-6D5 template with CDR L3 mutation S91E (SEQ ID NO:50) (antibody, V domains shown) VH: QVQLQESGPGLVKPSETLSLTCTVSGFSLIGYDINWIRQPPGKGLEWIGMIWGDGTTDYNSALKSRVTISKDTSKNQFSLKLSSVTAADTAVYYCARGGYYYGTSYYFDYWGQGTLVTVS VL: DIQMTQSPSSLSASVGDRVTITCRASQDISNHLNWYQQKPGKAPKLLIYYISRFHSGVPSRFSGSGSGTDFTFTISSLQPEDIATYYCQQEKTLPYTFGQGTKLEIKRT ; retrieve measured koff.
A. 0.00025 s⁻¹
